Test: Limit of solubility of F-Ade in water
Type: physicochemical
Condition summary: dissolved in water
Readout kind: solubility
Numeric answer plus unit only.

Exercise: So what does the record say about solubility for Nc1nc(F)nc2nc[nH]c12 ?
Key: 1000 µg/mL
